Reported property: melting point

Sample records with melting point:
{"Smiles record": "ON=C1CCC(C2CCCCC2)=C1c1ccc(F)c(Cl)c1", "Reported property": "melting point", "Value": "158 to 160 °C"}
{"Smiles record": "CCCCCC1=C(c2ccsc2)C(=NO)CC1", "Reported property": "melting point", "Value": "105 to 106 °C"}
{"Smiles record": "CC(C)CC1=C(c2ccc(F)cc2)C(=NO)CC1", "Reported property": "melting point", "Value": "154 to 157 °C"}
{"Smiles record": "C=Cc1ccc(C2=C(C3CCCC3)CCC2=NO)cc1", "Reported property": "melting point", "Value": "177 to 179 °C"}
{"Smiles record": "ON=C1CCC(C2CCCC2)=C1c1cccc2c1oc1ccccc12", "Reported property": "melting point", "Value": "195 to 200 °C"}
{"Smiles record": "CCCC1=C(c2ccc(F)c(F)c2)C(=NO)CC1", "Reported property": "melting point", "Value": "136 to 137 °C"}
{"Smiles record": "CCC1=C(c2ccc(F)cc2)C(=NO)CC1", "Reported property": "melting point", "Value": "168 to 169 °C"}

Okay, next one:
Enquiry: Return melting point for the following molecule: CCCCC1=C(c2cccc(C(F)(F)F)c2)C(=NO)CC1
Return: 65 to 67 °C

---

tested on: production of TNF-α in rat PBMCs; test: Inhibition of TNF-α production in rat PBMCs (LPS/IFN-γ stimulated, ELISA); format: cell-based; conditions: PBMC; rat PBMCs, LPS + IFN-γ, 18 hours
# IC50 per entry

Sample records with IC50:
{"Smiles record": "CCCCCC1=C(c2ccccc2)C(=NO)CC1", "Reported property": "IC50", "Value": "1 to 3 µg/mL"}
{"Smiles record": "CCC1=C(c2ccc(F)cc2)C(=NO)CC1", "Reported property": "IC50", "Value": "~3 µg/mL"}
{"Smiles record": "CC1=C(c2ccc(F)cc2)C(=NO)CC1", "Reported property": "IC50", "Value": "~10 µg/mL"}

Okay, next one:
Enquiry: Return IC50 for the following compound: ON=C1CCC(C2CCCCC2)=C1c1ccc(F)c(F)c1
Return: < 0.1 µg/mL
